Measured gamma_day5 accompanies every entry in the list below.
# Test system: K562 CRISPRi cells
# measurement_description: Perturb-seq pooled growth measurement (sgRNA counts, growth phenotype γ, relative activity)
# Assay type: cell-based, human
# measurement_parameters: pooled growth phenotype γ of the Perturb-seq sgRNA, day 5, K562 CRISPRi cells

Please review the following examples before continuing.
substance="HSPE1_ + _198365089.23-P1P2_02 (guide GGAGACTGGCAGTCCGGCCC; listed as DNA, chemistry not fully specified)" metric_name=gamma_day5 readout_value=−0.4365
substance="COX11_ + _53045977.23-P1P2_05 (guide GGCTCTGGCGTCTTGGATGG; listed as DNA, chemistry not fully specified)" metric_name=gamma_day5 readout_value=−0.0555
substance="RAN_ + _131356438.23-P1P2_02 (guide GGCGGCCGCTGCGCTTAGGG; listed as DNA, chemistry not fully specified)" metric_name=gamma_day5 readout_value=−0.2316
substance="GNB2L1_ + _180670873.23-P1P2_07 (guide GTGCAAGGCGGGGGCAGGAG; listed as DNA, chemistry not fully specified)" metric_name=gamma_day5 readout_value=−0.38
substance="HSPE1_ + _198365089.23-P1P2_00 (guide GGAGACTCGCAGTCCGGCCC; listed as DNA, chemistry not fully specified)" metric_name=gamma_day5 readout_value=−0.7018
substance="RPS18_ + _33239917.23-P1P2_02 (guide GCTGGGATGCCGCTGGATCA; listed as DNA, chemistry not fully specified)" metric_name=gamma_day5 readout_value=−0.4898

Quickly give me recorded gamma_day5 for DBR1_ + _137893744.23-P1P2_01 (guide GATTGCAGGAGTCTACACCC; listed as DNA, chemistry not fully specified)
−0.5119

Quickly give me recorded gamma_day5 for EIF2S1_ −_67827080.23-P1P2_02 (guide GAGCGCAGCGCACGCTGAGG; listed as DNA, chemistry not fully specified)
−0.7288

Quickly give me recorded gamma_day5 for COX11_ + _53045977.23-P1P2_04 (guide GGCTCTGGCGCCCTGGATGG; listed as DNA, chemistry not fully specified)
−0.1495

Values from patent US20220259593A1
